tested on: NQO1 specific enzyme activity in BEAS-2B cells; assay: BEAS-2B NQO1 MTT assay; format: cell-based; details: Homo sapiens, BEAS-2B, 48 h, NQO1 specific enzyme activity induction in BEAS-2B cells, 48 hours; read-out: EC50
Where a name gives a salt, the structure may show the parent alone.
I'd be grateful if you could share measured EC50 for these entries.

I am curious: what EC50 value has been reported for Cc1c(C(CC(=O)O)c2ccc3c(c2)C2C(CCN2C(=O)OC(C)(C)C)C3)ccc2c1nnn2C (stereo not shown) ? 100 to 1000 nM

I am curious: what EC50 value has been reported for COc1cc(C(CC(=O)O)c2ccc3c(c2)C(N2Cc4cccnc4OC(C)(C)C2)CC3)cc2nnn(C)c12 (stereo not shown) [Example 55, Formic Acid Salt] ? 100 to 1000 nM

I am curious: what EC50 value has been reported for Cc1c([C@H](c2ccc3c(c2)[C@H](N2Cc4ccccc4OC(C)(C)C2)CC3)C(C)(C)C(=O)O)ccc2c1nnn2C (stereo in doubt) ? < 1 nM

I am curious: what EC50 value has been reported for Cc1c([C@H](c2ccc3c(c2)[C@@H](N2Cc4ccccc4OC(C)(C)C2)CC3)C(C)(C)C(=O)O)ccc2c1nnn2C (stereo in doubt) ? 1 to 10 nM

I am curious: what EC50 value has been reported for Cc1c(C(c2ccc3c(c2)C(N2Cc4ccccc4O[C@H](C)C2)CC3)C(C)(C)C(=O)O)ccc2c1nnn2C (stereo partly shown) [Example 32, Formic Acid Salt] ? 1 to 10 nM

I am curious: what EC50 value has been reported for COc1cc(C(CC(=O)O)c2ccc3c(c2)C(N2Cc4cnccc4OC(C)(C)C2)CC3)cc2nnn(C)c12 (stereo not shown) [Example 46, Formic Acid Salt] ? 10 to 100 nM

I am curious: what EC50 value has been reported for CC[C@@H]1CN(C2CCc3ccc(C(CC(=O)O)c4cc(OC)c5c(nnn5C)c4C)cc32)Cc2ccccc2O1 (stereo partly shown) [Example 45, Formic Acid Salt] ? 10 to 100 nM

I am curious: what EC50 value has been reported for Cc1c(C(CC(=O)O)c2ccc3c(c2)C(N2Cc4cccnc4OC(C)(C)C2)CC3)ccc2c1nnn2C (stereo not shown) ? 10 to 100 nM

I am curious: what EC50 value has been reported for Cc1c(C(CC(=O)O)c2ccc3c(c2)C2C(CCN2C(=O)CC2CCCCC2)C3)ccc2c1nnn2C (stereo not shown) ? 1000 to 10000 nM

I am curious: what EC50 value has been reported for Cc1c(C(CC(=O)O)c2ccc3c(c2)C(N2Cc4ccc(C#N)cc4OC(C)(C)C2)CC3)ccc2c1nnn2C (stereo not shown) [Example 35, Formic Acid Salt] ? 1 to 10 nM

I am curious: what EC50 value has been reported for Cc1c(C(CC(=O)O)c2ccc3c(c2)C2C(CCN2C(=O)Cc2ccccc2C#N)C3)ccc2c1nnn2C (stereo not shown) ? 1000 to 10000 nM

I am curious: what EC50 value has been reported for COc1cc(C(CC(=O)O)c2ccc3c(c2)C(N2CCOc4ccccc4C2)CC3)c(C)c2nnn(C)c12 (stereo not shown) [Example 52, Formic Acid Salt] ? 10 to 100 nM

I am curious: what EC50 value has been reported for COc1cc(C(CC(=O)O)c2ccc3c(c2)C2C(CCN2C(=O)OC(C)(C)C)C3)cc2nnn(C)c12 (stereo not shown) ? 100 to 1000 nM

---

Tested on: NQO1 specific enzyme activity in BEAS-2B cells
Experiment: BEAS-2B NQO1 MTT assay
Type: cell-based
Settings: Homo sapiens, BEAS-2B, NQO1 specific enzyme activity in BEAS-2B cells; in some determinations; read-out: EC50 values in some determinations
From the text: NAD(P)H:quinone oxidoreductase 1 (NQO1), also called DT diaphorase, is a homodimeric FAD-containing enzyme that catalyzes obligatory NAD(P)H-dependent two-electron reductions of quinones and protects cells against the toxic and neoplastic effects of free radicals and reactive oxygen species arising from one-electron reductions. […] On day one, frozen BEAS-2B cells (ATCC) are thawed in a water bath, counted, and re-suspended at a concentration of 250,000 cells/mL. […]
pEC50: −log10 of the molar value. Structures can show the parent of a compound that is named as a salt.
value.type: pEC50

I am curious: what pEC50 value has been reported for Cc1c(C(c2ccc3c(c2)C(N2Cc4ccccc4OC(C)(C)C2)CC3)C(C)(C)C(=O)O)ccc2c1nnn2C (stereo not shown) [Example 27, Formic Acid Salt] ? > 9.77

---

tested on: NQO1 specific enzyme activity in BEAS-2B cells; assay: BEAS-2B NQO1 MTT assay; assay type: cell-based; conditions: Homo sapiens, BEAS-2B, 48 h, NQO1 specific enzyme activity induction in BEAS-2B cells, 48 hours; read-out: EC50
Structures can show the parent of a compound that is named as a salt.
value.type: EC50

I am curious: what EC50 value has been reported for Cc1c(C(CC(=O)O)c2ccc3c(c2)C(N2Cc4ccccc4O[C@@H](C)C2)CC3)ccc2c1nnn2C (stereo partly drawn) [Example 56, Formic Acid Salt] ? 100 to 1000 nM

I am curious: what EC50 value has been reported for Cc1c([C@H](c2ccc3c(c2)[C@H](N2Cc4cnccc4OC(C)(C)C2)CC3)C(C)(C)C(=O)O)ccc2c1nnn2C ? < 1 nM

I am curious: what EC50 value has been reported for CC[C@@H]1CN([C@@H]2CCc3ccc([C@@H](c4ccc5c(nnn5C)c4C)C(C)(C)C(=O)O)cc32)Cc2cnccc2O1 (relative stereo) ? 1 to 10 nM

I am curious: what EC50 value has been reported for Cc1c(C(c2ccc3c(c2)C(N2Cc4cccnc4O[C@@H](C)C2)CC3)C(C)(C)C(=O)O)ccc2c1nnn2C (stereo partly drawn) [Example 49, Formic Acid Salt] ? 10 to 100 nM

I am curious: what EC50 value has been reported for CC[C@@H]1CN(C2CCc3ccc(C(CC(=O)O)c4ccc5c(nnn5C)c4C)cc32)Cc2ccccc2O1 (stereo partly drawn) [Example 50, Formic Acid Salt] ? 10 to 100 nM

I am curious: what EC50 value has been reported for CCn1cc(CCC(CC(=O)O)c2ccc3c(c2)[C@@H]2[C@@H](CC(=O)N2CC2CCCCC2)C3)nn1 (stereo partly drawn) ? 1000 to 10000 nM

I am curious: what EC50 value has been reported for Cc1c(C(c2ccc3c(c2)C(N2Cc4cnccc4OC(C)(C)C2)CC3)C(C)(C)C(=O)O)ccc2c1nnn2C (stereo not drawn) [Example 33, Trifluoroacetic Acid Salt] ? 1 to 10 nM

I am curious: what EC50 value has been reported for Cc1c(C(CC(=O)O)c2ccc3c(c2)C(N2Cc4cccnc4O[C@H](C)C2)CC3)ccc2c1nnn2C (stereo partly drawn) [Example 61, Formic Acid Salt] ? 1000 to 10000 nM

I am curious: what EC50 value has been reported for COc1cc(C(CC(=O)O)c2ccc3c(c2)C(N2Cc4cnccc4OC(C)(C)C2)CC3)c(C)c2nnn(C)c12 (stereo not drawn) [Example 36, Formic Acid Salt] ? 1 to 10 nM

I am curious: what EC50 value has been reported for Cc1c(C(CC(=O)O)c2ccc3c(c2)C(N2Cc4ccc(F)cc4OC(C)(C)C2)CC3)ccc2c1nnn2C (stereo not drawn) ? 1 to 10 nM

I am curious: what EC50 value has been reported for Cc1c([C@H](c2ccc3c(c2)[C@H](N2Cc4ncccc4OC(C)(C)C2)CC3)C(C)(C)C(=O)O)ccc2c1nnn2C (racemic) [Example 67, Trifluoroacetic Acid Salt] ? < 1 nM

I am curious: what EC50 value has been reported for CC[C@@H]1CN(C2CCc3ccc(C(c4ccc5c(nnn5C)c4C)C(C)(C)C(=O)O)cc32)Cc2ccccc2O1 (stereo partly drawn) [Example 30, Formic Acid Salt] ? 1 to 10 nM

---

test system: NQO1 specific enzyme activity in BEAS-2B cells; test: BEAS-2B NQO1 MTT assay; assay type: cell-based; settings: Homo sapiens, BEAS-2B, 48 h, NQO1 specific enzyme activity induction in BEAS-2B cells, 48 hours; read-out: EC50
Structures can show the parent of a compound that is named as a salt.
I'd be grateful if you could share measured EC50 for these entries.

I am curious: what EC50 value has been reported for CC[C@@H]1CN(C2CCc3ccc(C(CCc4cn(CC)nn4)C(C)(C)C(=O)O)cc32)Cc2cnccc2O1 (some centres unmarked) ? 10 to 100 nM

I am curious: what EC50 value has been reported for Cc1c(C(CC(=O)O)c2ccc3c(c2)C2C(C3)OC(=O)N2CC2CCCCC2)ccc2c1nnn2C (centres unmarked) ? 100 to 1000 nM

I am curious: what EC50 value has been reported for COc1cc(C(CC(=O)O)c2ccc3c(c2)C(N2Cc4cc(C)ccc4O[C@H](C)C2)CC3)c(C)c2nnn(C)c12 (some centres unmarked) [Example 39, Formic Acid Salt] ? 1 to 10 nM

I am curious: what EC50 value has been reported for Cc1c(C(CC(=O)O)c2ccc3c(c2)C(N2Cc4cnccc4OC(C)(C)C2)CC3)ccc2c1nnn2C (centres unmarked) [Example 48, Formic Acid Salt] ? 10 to 100 nM

I am curious: what EC50 value has been reported for CCC1CCC(CN2C(=O)CC3Cc4ccc(C(CC(=O)O)c5ccc6c(nnn6C)c5C)cc4C32)CC1 (centres unmarked) ? 10 to 100 nM

I am curious: what EC50 value has been reported for Cc1c([C@H](c2ccc3c(c2)[C@@H](N2Cc4ccncc4OC(C)(C)C2)CC3)C(C)(C)C(=O)O)ccc2c1nnn2C (racemic) [Example 69, Trifluoroacetic acid salt] ? < 1 nM

I am curious: what EC50 value has been reported for CC[C@@H]1CN([C@@H]2CCc3ccc(C(CC(=O)O)c4ccc5c(nnn5C)c4C)cc32)Cc2ccccc2O1 (relative stereo) ? 1000 to 10000 nM

I am curious: what EC50 value has been reported for COc1cc(C(CC(=O)O)c2ccc3c(c2)C(N2Cc4ccccc4OC(C)(C)C2)CC3)c(C)c2nnn(C)c12 (centres unmarked) [Example 29, Formic Acid Salt] ? < 1 nM

I am curious: what EC50 value has been reported for Cc1ccc2c(c1)CN(C1CCc3ccc(C(CC(=O)O)c4ccc5c(nnn5C)c4C)cc31)CC(C)(C)O2 (centres unmarked) ? 1 to 10 nM

I am curious: what EC50 value has been reported for Cc1cc(F)ccc1C(CC(=O)O)c1ccc2c(c1)C(N1Cc3cccnc3OC(C)(C)C1)CC2 (centres unmarked) [Example 60, Formic Acid Salt] ? 100 to 1000 nM

I am curious: what EC50 value has been reported for Cc1ccc2c(c1)OC(C)(C)CN(C1CCc3ccc(C(CC(=O)O)c4ccc5c(nnn5C)c4C)cc31)C2 (centres unmarked) [Example 24, Formic Acid Salt] ? 1 to 10 nM

I am curious: what EC50 value has been reported for Cc1c(C(CC(=O)O)c2ccc3c(c2)C(N2Cc4ccccc4O[C@H](C)C2)CC3)ccc2c1nnn2C (some centres unmarked) ? 100 to 1000 nM

I am curious: what EC50 value has been reported for Cc1cc(F)ccc1C(c1ccc2c(c1)C(N1Cc3ccccc3OC(C)(C)C1)CC2)C(C)(C)C(=O)O (centres unmarked) ? 10 to 100 nM

I am curious: what EC50 value has been reported for Cc1c(C(CC(=O)O)c2ccc3c(c2)C2C(CC(=O)N2CC2CCC4CCCCC4C2)C3)ccc2c1nnn2C (centres unmarked) ? 10 to 100 nM

I am curious: what EC50 value has been reported for Cc1cc(C#N)ccc1C(CC(=O)O)c1ccc2c(c1)C(N1Cc3cccnc3OC(C)(C)C1)CC2 (centres unmarked) [Example 59, Formic Acid Salt] ? 100 to 1000 nM

I am curious: what EC50 value has been reported for Cc1c(C(CC(=O)O)c2ccc3c(c2)[C@@H]2[C@@H](CC(=O)N2CC2CCCCC2)C3)ccc2c1nnn2C (some centres unmarked) ? 100 to 1000 nM

I am curious: what EC50 value has been reported for Cn1nnc2cc(C(CC(=O)O)c3ccc4c(c3)C(N3Cc5cccnc5OC(C)(C)C3)CC4)ncc21 (centres unmarked) [Example 62, Formic Acid Salt] ? 1000 to 10000 nM

I am curious: what EC50 value has been reported for Cc1c([C@@H](c2ccc3c(c2)[C@H](N2Cc4ccccc4OC(C)(C)C2)CC3)C(C)(C)C(=O)O)ccc2c1nnn2C (stereo in doubt) ? 1 to 10 nM

I am curious: what EC50 value has been reported for CCCCN(C)C(=O)N1CCC2Cc3ccc(C(CC(=O)O)c4ccc5c(nnn5C)c4C)cc3C21 (centres unmarked) ? 1000 to 10000 nM

I am curious: what EC50 value has been reported for Cc1c(C(c2ccc3c(c2)C(N2CCOc4ccccc4C2)CC3)C(C)(C)C(=O)O)ccc2c1nnn2C (centres unmarked) [Example 38, Formic Acid Salt] ? 1 to 10 nM

Reference source: patent US10272095B2
